B1: TPR t1 (parent)
chain: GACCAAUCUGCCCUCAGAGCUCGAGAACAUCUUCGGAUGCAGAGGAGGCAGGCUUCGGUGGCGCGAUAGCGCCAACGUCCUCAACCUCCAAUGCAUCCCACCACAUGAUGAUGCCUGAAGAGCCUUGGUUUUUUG

# Variants of: B1
# Assay method text: polymerase ribozyme fitness, log enrichment relative to wild type (log ratio); higher = more active; in vitro selection for triplet polymerase activity
Could you label it y if measured polymerase ribozyme fitness (log ratio) is -3 or higher, and n otherwise?

Confirm if polymerase ribozyme fitness (log ratio) reported for the variant C8U A26U C62U G93A is -3 or above. y

Confirm if polymerase ribozyme fitness (log ratio) reported for the variant A41C A91U A95C G113A is -3 or above. n

Confirm if polymerase ribozyme fitness (log ratio) reported for the variant G47A G48A A118G is -3 or above. y

Confirm if polymerase ribozyme fitness (log ratio) reported for the variant G52U G120A is -3 or above. y

Confirm if polymerase ribozyme fitness (log ratio) reported for the variant G63C A84U G117A is -3 or above. y

Confirm if polymerase ribozyme fitness (log ratio) reported for the variant U7G C12U C15A C22G C62U C80U C86U U96C G113C is -3 or above. n

Confirm if polymerase ribozyme fitness (log ratio) reported for the variant A27U A43U is -3 or above. n

Confirm if polymerase ribozyme fitness (log ratio) reported for the variant C8G C20G C34U U112A is -3 or above. n

Confirm if polymerase ribozyme fitness (log ratio) reported for the variant C12G A26U G77A is -3 or above. y

Confirm if polymerase ribozyme fitness (log ratio) reported for the variant C20G G71A C72A C80U G110C G117C is -3 or above. n

Confirm if polymerase ribozyme fitness (log ratio) reported for the variant C70U C98U U129G is -3 or above. y

Confirm if polymerase ribozyme fitness (log ratio) reported for the variant C13A U14G G42A A84U is -3 or above. n

Confirm if polymerase ribozyme fitness (log ratio) reported for the variant G47U C94U U106G G117U G120A is -3 or above. n

Confirm if polymerase ribozyme fitness (log ratio) reported for the variant C11U A37G U96G is -3 or above. y

Confirm if polymerase ribozyme fitness (log ratio) reported for the variant G36U G60C is -3 or above. y

Confirm if polymerase ribozyme fitness (log ratio) reported for the variant C22G U92G is -3 or above. n

Confirm if polymerase ribozyme fitness (log ratio) reported for the variant C70U G77A U81C is -3 or above. y

Confirm if polymerase ribozyme fitness (log ratio) reported for the variant C8G C12G U55G G61U G71A is -3 or above. n

Confirm if polymerase ribozyme fitness (log ratio) reported for the variant A5C C94U G110A is -3 or above. y

Confirm if polymerase ribozyme fitness (log ratio) reported for the variant A6U A41G A91G is -3 or above. y

Confirm if polymerase ribozyme fitness (log ratio) reported for the variant G65A C114G is -3 or above. n

Confirm if polymerase ribozyme fitness (log ratio) reported for the variant G45U C104U A119G U130A is -3 or above. y

Confirm if polymerase ribozyme fitness (log ratio) reported for the variant G51A G120U is -3 or above. y

Confirm if polymerase ribozyme fitness (log ratio) reported for the variant C40U G51U is -3 or above. n

Confirm if polymerase ribozyme fitness (log ratio) reported for the variant A43U G63A A103U G117C U131A is -3 or above. n

Confirm if polymerase ribozyme fitness (log ratio) reported for the variant C72A A121U is -3 or above. y

Confirm if polymerase ribozyme fitness (log ratio) reported for the variant C11U C49U C101A is -3 or above. y

Confirm if polymerase ribozyme fitness (log ratio) reported for the variant C11G G45U is -3 or above. y

Confirm if polymerase ribozyme fitness (log ratio) reported for the variant C34A G71C U129C is -3 or above. n

Confirm if polymerase ribozyme fitness (log ratio) reported for the variant C28U U133G is -3 or above. y

Confirm if polymerase ribozyme fitness (log ratio) reported for the variant C11G C12A C40U C99U G117A C124G is -3 or above. n

Confirm if polymerase ribozyme fitness (log ratio) reported for the variant C3G A29U C49A G57U A121G is -3 or above. y

Confirm if polymerase ribozyme fitness (log ratio) reported for the variant G61U G117C is -3 or above. y

Confirm if polymerase ribozyme fitness (log ratio) reported for the variant A91U G128A is -3 or above. n

Confirm if polymerase ribozyme fitness (log ratio) reported for the variant A6U C22U G51A is -3 or above. n

Confirm if polymerase ribozyme fitness (log ratio) reported for the variant C4U G35C C72U G117C C123U U125A is -3 or above. n

Confirm if polymerase ribozyme fitness (log ratio) reported for the variant A50U G71U is -3 or above. y

Confirm if polymerase ribozyme fitness (log ratio) reported for the variant C8U G60U U106A G122A is -3 or above. y

Confirm if polymerase ribozyme fitness (log ratio) reported for the variant A5U A18C G57U is -3 or above. y

Confirm if polymerase ribozyme fitness (log ratio) reported for the variant A26G G36U C72G is -3 or above. n

Confirm if polymerase ribozyme fitness (log ratio) reported for the variant U9A G61A is -3 or above. y

Confirm if polymerase ribozyme fitness (log ratio) reported for the variant G48C G71C C123G is -3 or above. y

Confirm if polymerase ribozyme fitness (log ratio) reported for the variant C11U G48U G113A is -3 or above. y

Confirm if polymerase ribozyme fitness (log ratio) reported for the variant G48A C82U is -3 or above. y

Confirm if polymerase ribozyme fitness (log ratio) reported for the variant C40A C114A is -3 or above. n

Confirm if polymerase ribozyme fitness (log ratio) reported for the variant A27U C70U C73G A84G C89G C114G is -3 or above. n

Confirm if polymerase ribozyme fitness (log ratio) reported for the variant C70A A111G is -3 or above. y

Confirm if polymerase ribozyme fitness (log ratio) reported for the variant A26U C82G is -3 or above. n

Confirm if polymerase ribozyme fitness (log ratio) reported for the variant C4U G42C G60U C88G C99G A111U U134A is -3 or above. n

Confirm if polymerase ribozyme fitness (log ratio) reported for the variant C72A C124U U131A is -3 or above. y

Confirm if polymerase ribozyme fitness (log ratio) reported for the variant C15U C86U is -3 or above. y

Confirm if polymerase ribozyme fitness (log ratio) reported for the variant U59G U109G G120U is -3 or above. n

Confirm if polymerase ribozyme fitness (log ratio) reported for the variant C98U C104U U112A is -3 or above. y

Confirm if polymerase ribozyme fitness (log ratio) reported for the variant C49U C98U is -3 or above. y

Confirm if polymerase ribozyme fitness (log ratio) reported for the variant G77A C79U G120U C123A is -3 or above. y

Confirm if polymerase ribozyme fitness (log ratio) reported for the variant U112C A121G is -3 or above. y

Confirm if polymerase ribozyme fitness (log ratio) reported for the variant C62A C97U U106A is -3 or above. y

Confirm if polymerase ribozyme fitness (log ratio) reported for the variant C72A A83C U96A G110A is -3 or above. y

Confirm if polymerase ribozyme fitness (log ratio) reported for the variant G61U C82A C89G C101A C102A U112C C123A is -3 or above. n

Confirm if polymerase ribozyme fitness (log ratio) reported for the variant A2C C4U C13A C49A C56A G71A U87A is -3 or above. n

Confirm if polymerase ribozyme fitness (log ratio) reported for the variant C56U G69U C79A C101U is -3 or above. n

Confirm if polymerase ribozyme fitness (log ratio) reported for the variant C11G G19U C82U is -3 or above. n

Confirm if polymerase ribozyme fitness (log ratio) reported for the variant C8U G47C G77C U129G is -3 or above. n

Confirm if polymerase ribozyme fitness (log ratio) reported for the variant G60U C86U is -3 or above. y

Confirm if polymerase ribozyme fitness (log ratio) reported for the variant C8A U112C A121G is -3 or above. y

Confirm if polymerase ribozyme fitness (log ratio) reported for the variant U92A A111G U129C U132C is -3 or above. n

Confirm if polymerase ribozyme fitness (log ratio) reported for the variant C8G G19U G71A G113A U130C is -3 or above. y

Confirm if polymerase ribozyme fitness (log ratio) reported for the variant C56A C99U C102U is -3 or above. n

Confirm if polymerase ribozyme fitness (log ratio) reported for the variant C12U G69C C73U U129G is -3 or above. n

Confirm if polymerase ribozyme fitness (log ratio) reported for the variant G45A A121U is -3 or above. y

Confirm if polymerase ribozyme fitness (log ratio) reported for the variant C4U A121U is -3 or above. y

Confirm if polymerase ribozyme fitness (log ratio) reported for the variant C11G G63A C82G G117U C123G is -3 or above. y

Confirm if polymerase ribozyme fitness (log ratio) reported for the variant C12G C79A A91C is -3 or above. y

Confirm if polymerase ribozyme fitness (log ratio) reported for the variant A50C C70U A105U is -3 or above. n

Confirm if polymerase ribozyme fitness (log ratio) reported for the variant C56A U78C is -3 or above. y

Confirm if polymerase ribozyme fitness (log ratio) reported for the variant A16C C82G is -3 or above. n

Confirm if polymerase ribozyme fitness (log ratio) reported for the variant C99U G110C is -3 or above. n

Confirm if polymerase ribozyme fitness (log ratio) reported for the variant G36A G61C is -3 or above. y

Confirm if polymerase ribozyme fitness (log ratio) reported for the variant U9G G63C is -3 or above. y

Confirm if polymerase ribozyme fitness (log ratio) reported for the variant C56G U81A U125A is -3 or above. y

Confirm if polymerase ribozyme fitness (log ratio) reported for the variant C4U U7C A43U C62G is -3 or above. n

Confirm if polymerase ribozyme fitness (log ratio) reported for the variant C34U C56A G71C U112A is -3 or above. n

Confirm if polymerase ribozyme fitness (log ratio) reported for the variant U30C A50G A74G C123U is -3 or above. n

Confirm if polymerase ribozyme fitness (log ratio) reported for the variant A2U C72G C101G C124A is -3 or above. y

Confirm if polymerase ribozyme fitness (log ratio) reported for the variant C53A U54G C70U C86U C89G A121C U125A is -3 or above. y

Confirm if polymerase ribozyme fitness (log ratio) reported for the variant A50U G63C is -3 or above. y

Confirm if polymerase ribozyme fitness (log ratio) reported for the variant C8U U14A A46U C56U is -3 or above. y

Confirm if polymerase ribozyme fitness (log ratio) reported for the variant U55A G57A U112G is -3 or above. y
